Overview of recorded Cells stained (%) for various binders
assayed_system: T1, GARS, endogenous in H929 multiple myeloma cells (human, UniProt P41250 37-739, limits assumed)
T1 construct: Native protein pulled down from H929 lysates; also called Glycyl-tRNA synthetase; GlyRS
T1 sequence: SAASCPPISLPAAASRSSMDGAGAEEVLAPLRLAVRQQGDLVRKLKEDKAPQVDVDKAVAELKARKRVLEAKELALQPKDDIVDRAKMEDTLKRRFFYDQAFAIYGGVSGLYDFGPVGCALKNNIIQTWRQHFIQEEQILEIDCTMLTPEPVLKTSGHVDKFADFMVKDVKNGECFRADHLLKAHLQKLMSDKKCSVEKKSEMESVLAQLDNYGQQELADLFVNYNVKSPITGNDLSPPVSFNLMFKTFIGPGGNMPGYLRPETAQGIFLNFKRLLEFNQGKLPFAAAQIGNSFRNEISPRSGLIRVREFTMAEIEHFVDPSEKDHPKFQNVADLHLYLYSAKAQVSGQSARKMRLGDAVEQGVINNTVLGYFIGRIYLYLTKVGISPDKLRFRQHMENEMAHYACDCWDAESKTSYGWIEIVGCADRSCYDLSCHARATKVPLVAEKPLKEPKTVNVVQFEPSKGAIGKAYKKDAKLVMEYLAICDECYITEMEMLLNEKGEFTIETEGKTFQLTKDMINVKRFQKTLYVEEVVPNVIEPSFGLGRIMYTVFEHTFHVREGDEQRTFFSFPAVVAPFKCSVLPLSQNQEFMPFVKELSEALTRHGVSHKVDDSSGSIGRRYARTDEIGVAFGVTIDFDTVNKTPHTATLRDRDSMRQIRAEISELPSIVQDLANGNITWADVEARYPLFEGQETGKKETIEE
assay_notes: flow cytometry, H929 + CADM1 siRNA; None 0.89; surface target GARS putative
Give the number; % is assumed, so skip it.

// known answers, use as guide
binder	unit_of_measurement	observed
HW-56 chimeric rabbit-human IgG1 LA/LA/PG (antibody, V domains shown, Fc-silenced (L234A/L235A/P329G) IgG1, kappa; Alexa Fluor 647-labeled in single-step flow cytometry; Cluster C-45) VH: QSVKESEGGLFKPTDTLTLTCTASGFTVSTNAVTWVRQAPGNGLEYIGTIGRSGSAYFASWAKRRSTLTRDINLNTVTLKMTSLTAADTATYFCVRGSPGYRTAISIWGPGTLVTISS VL: AVMTQTPSSTSAAVEGTVTINCQASQSISNRLSWFQQKPGQPPKLLIYQASTLASGVPSRFKGSGSGTEFTLTISGVQREDAATYYCLGSYSSSDASFGGGTKLEIKR	%	99.6
HW-45 chimeric rabbit-human IgG1 LA/LA/PG (antibody, V domains shown, Fc-silenced (L234A/L235A/P329G) IgG1, lambda; Alexa Fluor 647-labeled in single-step flow cytometry; Prototype of cluster C-45) VH: QKQLVESGGRLVTPGTPLTLTCTVSGFSLSSYAMGWFRQAPGKGLEWIGIINSYGSTYYASWAKGRFTISKTSTTVDLKITSPTTEDTATYFCGRRIGSARFDPWGPGTLVTVSS VL: SFVLTQPASVQVNLGQTVSLTCTADTLSRSYASWYQQKPGQAPVLLIYRDTRRPSGVPDRFSGSSSGNTATLTISGAQAGDEADYYCATSDGSGSSYRLVFGGGTQLTVTG	%	97
HW-81 chimeric rabbit-human IgG1 LA/LA/PG (antibody, V domains shown, Fc-silenced (L234A/L235A/P329G) IgG1, lambda; Alexa Fluor 647-labeled in single-step flow cytometry; Cluster C-45) VH: QKQLVESGGGLVTPGGTLTLTCTVSGFSLSSNGVSWVRQAPGKGLEYIGLIRSIGSTYYATWAKGRFTISKTSTTVDLKITSPTTEDTATYFCARGGYRNGFKLWGPGTLVTVSS VL: QPVLTQSPSVSAALGASAKLTCTLSSAHKTYYIEWYQQQHPGKAPRYLMQLQSDGSYTKGTGVPDRFSGSSSGADRYLIISSVQAEDEADYICGVIDSAVYVFGGGTQLTVTG	%	99.8
HW-8 chimeric rabbit-human IgG1 LA/LA/PG (antibody, V domains shown, Fc-silenced (L234A/L235A/P329G) IgG1, kappa; Alexa Fluor 647-labeled in single-step flow cytometry; Cluster C-45) VH: QSLEESGGRLVTPGTPLTLTCTVSGFSLSSYAMSWVRQAPGKGLEWIGAISTGGSTTYASWAKGRFTISKTSSTTVDLKMTSLTTEDTATYFCVRHFRLWGPGTLVTISS VL: QVLTQTPSSVSAAVGGTVTIKCQASQSIGSALAWFQQKPGQRPKLLIYRASNLASGVPSRFKGSGSGTEFALTISGVQREDAATYYCLGGAAAVWAFGAGTNVEIKR	%	89.3
HW-16 chimeric rabbit-human IgG1 LA/LA/PG (antibody, V domains shown, Fc-silenced (L234A/L235A/P329G) IgG1, kappa; Alexa Fluor 647-labeled in single-step flow cytometry; Cluster C-45) VH: QSLEESGGRLVTPGTPLTLTCTASGFSLSSYAMSWVRQAPGKGLEWIGTMPTGGGTYYASWAKGRFTISKTSTTVDLQITSPTTEDTATYFCAKHWNIWGPGTLVTISS VL: DIVLTQTPSSTSTAVGDTVTINCRASQSIGRNLAWFQQKPGQPPKLLIYRASNLASGVPSRFKGSGSRTQFTLTISGVQREDAATYYCLGSYSSSDTAFGGGTELEILR	%	99

// next entry
Ask: What measured Cells stained (%) goes with HW-28 chimeric rabbit-human IgG1 LA/LA/PG (antibody, V domains shown, Fc-silenced (L234A/L235A/P329G) IgG1, lambda; Alexa Fluor 647-labeled in single-step flow cytometry; Cluster C-45) VH: QKQLVESGGRLVTPGTPLTLTCTASGFSLSSNAMSWVRQAPGEGLQWIGTISSGGSTYYASWAKGRFTISKTSTTVTLKMTSLTTEDTATYFCARGADLHRLWGPGTLVTVSS VL: SFVLTQPASVQVNLGQTVSLTCTGKPLSRSFASWYQQKPGQAPVLVIYRDTSRPSGVPDRFSGSSSGNTATLTISGAQAGDEADYYCATSDGSGSSYQYVFGGGTQLTVTG ?
Reply: 98.5

Hey, just so you know, these numbers are from patent US20260049134A1.
